B1: Double-stranded RNA-binding protein Staufen homolog 1, residues 183 to 249; numbered along this chain, O95793 (parent)
chain: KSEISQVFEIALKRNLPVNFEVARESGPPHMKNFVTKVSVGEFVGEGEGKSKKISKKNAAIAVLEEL

# Variants of: B1
# assay_info: abundance fitness (aPCA) (normalised: wild type 0, dead -1); higher = more abundant; growth selection in yeast, the domain comes from the species named
# condition_context: Homo sapiens
abundance fitness below -0.2 gives criterion not met; abundance fitness at or above it gives criterion met.

| residue_sequence | class_label |
| --- | --- |
| KSEISQVFEIALKRNLPVNFEVARESGPPHMFNFVTKVSVGEFVGEGEGKSKKISKKNAAIAVLEEL | criterion not met |
| KSEISQVFLIALKRNLPVNFEVARESGPPHMKNFVTKVSVGEFVGEGEGKSKKISKKNAAIAVLEEL | criterion not met |
| KSEISQVFEIALKRNLPVNFEVARESGPPHMKNFVTKVSVGEFVGEGEGKLKKISKKNAAIAVLEEL | criterion not met |
| KSEISQVFEIALKRNLPVNFEVARESGPPHMKNFVTKVSVGEFVGEGEGKSKKISKKNGAIAVLEEL | criterion not met |
| KSRISQVFEIALKRNLPVNFEVARESGPPHMKNFVTKVSVGEFVGEGEGKSKKISKKNAAIAVLEEL | criterion not met |
| KSEISQVFMIALKRNLPVNFEVARESGPPHMKNFVTKVSVGEFVGEGEGKSKKISKKNAAIAVLEEL | criterion not met |
| KSEISQVFEIALKRNLPVNFEVARESGPPHMKNFVTKVSVGEFVGEGEGVSKKISKKNAAIAVLEEL | criterion met |
| KSEISQVFEIALKRNLPVNFEVARESGPPHMKNFVTKVSVGEFVGEGEGYSKKISKKNAAIAVLEEL | criterion met |

Now let's try a different one.
Ask: API: above_or_equal(metric=abundance fitness, cutoff=-0.2) for item "KSEISQVFEIALKRNLPVNFEVARESGPPHMKNFVTKVSVGEFVGEIEGKSKKISKKNAAIAVLEEL"
Reply: criterion not met
